These entries and their values trace back to the RepoRT retention time repository (doi:10.1007/s00216-013-6954-6).

I'd appreciate it if you could supply LC retention time values for the items below.
assay-notes: RP, Waters ACQUITY UPLC HSS T3, 100 × 1 mm, 1.8 µm; A: water + 0.1% formic acid, pH 3; B: acetonitrile + 0.1% formic acid, pH 3; gradient (min/%B) 0/5 1/5 16/95 18/95 20/5
stated-conditions: stereoisomer not certain

Inquiry: Report LC retention time for COn1cc(CN)c2ccccc21 [1-MeO-I3CH2NH2] please.
Reply text: 3.7 min

Inquiry: Report LC retention time for O=C1CCC(C(=O)O)N1 (stereo not given) [Pyroglutamic acid] please.
Reply text: 0.687 min

Inquiry: Report LC retention time for CC(C)C(NC(=O)C(N)Cc1ccccc1)C(=O)O (stereo not drawn) [H-Phe-Val-OH] please.
Reply text: 3 min

Inquiry: Report LC retention time for CC(CCC(=O)NCCS(=O)(=O)O)C1CCC2C3C(O)CC4CC(O)CCC4(C)C3CC(O)C12C (stereo not given) [Taurocholic acid] please.
Reply text: 7.57 min

Inquiry: Report LC retention time for COc1cccc2[nH]cc(CN)c12 [4-MeO-I3CH2NH2] please.
Reply text: 3.2 min

Inquiry: Report LC retention time for NC(N)=NCCCC(N)C(=O)O (stereo not given) [Arginine] please.
Reply text: 0.413 min

Inquiry: Report LC retention time for NCc1c[nH]c2ccccc12 [Indol-3-ylmethylamine (I3CH2NH2)] please.
Reply text: 1.8 min

Inquiry: Report LC retention time for CC(C)CC(N)C(=O)NC(Cc1ccc(O)cc1)C(=O)O (stereo not drawn) [H-Leu-Tyr-OH] please.
Reply text: 2.8 min

Inquiry: Report LC retention time for O=c1[nH]cnc2c1ncn2C1OC(CO)C(O)C1O (stereo not given) [Inosine] please.
Reply text: 0.839 min

Inquiry: Report LC retention time for COc1cc(C=CCO)ccc1OC1OC(CO)C(O)C(O)C1O (stereo not given) [Coniferin] please.
Reply text: 3 min
